Values were extracted from the supplement of paper PMC10567573.

Readings of protein stability index for the listed variants
B1: TRIM55 (parent)
chain: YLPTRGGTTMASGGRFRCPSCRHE

# Variants of: B1
# assay_procedure: protein stability index of a GFP-peptide fusion (GPS, HEK-293T) (PSI 1-6); higher = more stable;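 note: lentivirally expressed fusions sorted by FACS into six bins by GFP to DsRed ratio, PSI derived from sequencing read proportions per bin multiplied by bin number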
# recorded_conditions: c terminus: a fixed tail appended
measured_quantity: protein stability index

> print(dat)
    variant  test.value
 1     S12G         2.1
 2     C18G        3.27
 3     A11F        1.98
 4      L2I        2.22
 5      R5Q        2.28
 6     C21Y        2.35
 7     G13T        1.88
 8     C18H        2.94
 9      Y1S        3.15
10     S20N        1.93
11      T9M        1.36
12      T8D        1.36
13      T8K         2.1
14     G13I        1.33
15     G14M        2.76
16     H23P        3.14
17     M10P         2.5
18     M10V        1.65
19      G7Y        2.17
20     R22A        2.59
21     S12D        1.34
22      P3L        1.32
23      Y1M        1.67
24     R22K        2.94
25      T4E        3.35
26     S20D        1.98
27     P19R        2.78
28      T9G        1.26
29     H23K        3.39
30     G14Y        1.69
31     E24V        2.29
32     R22C        1.97
33     F16M        1.74
34      T4V        4.07
35      L2Q        1.02
36      T9N        2.01
37     C21D        3.62
38      G7K        1.01
39     S12E        2.09
40     C18P        3.56
41      Y1G        3.18
42     G13Q        1.51
43      T4H        1.19
44     G14K        1.83
45      L2P        1.71
46     M10N        1.96
